# collection of IC50 values tested on PIK3CA (human) (UniProt P42336)
# Sequence (P42336 whole entry, looked up): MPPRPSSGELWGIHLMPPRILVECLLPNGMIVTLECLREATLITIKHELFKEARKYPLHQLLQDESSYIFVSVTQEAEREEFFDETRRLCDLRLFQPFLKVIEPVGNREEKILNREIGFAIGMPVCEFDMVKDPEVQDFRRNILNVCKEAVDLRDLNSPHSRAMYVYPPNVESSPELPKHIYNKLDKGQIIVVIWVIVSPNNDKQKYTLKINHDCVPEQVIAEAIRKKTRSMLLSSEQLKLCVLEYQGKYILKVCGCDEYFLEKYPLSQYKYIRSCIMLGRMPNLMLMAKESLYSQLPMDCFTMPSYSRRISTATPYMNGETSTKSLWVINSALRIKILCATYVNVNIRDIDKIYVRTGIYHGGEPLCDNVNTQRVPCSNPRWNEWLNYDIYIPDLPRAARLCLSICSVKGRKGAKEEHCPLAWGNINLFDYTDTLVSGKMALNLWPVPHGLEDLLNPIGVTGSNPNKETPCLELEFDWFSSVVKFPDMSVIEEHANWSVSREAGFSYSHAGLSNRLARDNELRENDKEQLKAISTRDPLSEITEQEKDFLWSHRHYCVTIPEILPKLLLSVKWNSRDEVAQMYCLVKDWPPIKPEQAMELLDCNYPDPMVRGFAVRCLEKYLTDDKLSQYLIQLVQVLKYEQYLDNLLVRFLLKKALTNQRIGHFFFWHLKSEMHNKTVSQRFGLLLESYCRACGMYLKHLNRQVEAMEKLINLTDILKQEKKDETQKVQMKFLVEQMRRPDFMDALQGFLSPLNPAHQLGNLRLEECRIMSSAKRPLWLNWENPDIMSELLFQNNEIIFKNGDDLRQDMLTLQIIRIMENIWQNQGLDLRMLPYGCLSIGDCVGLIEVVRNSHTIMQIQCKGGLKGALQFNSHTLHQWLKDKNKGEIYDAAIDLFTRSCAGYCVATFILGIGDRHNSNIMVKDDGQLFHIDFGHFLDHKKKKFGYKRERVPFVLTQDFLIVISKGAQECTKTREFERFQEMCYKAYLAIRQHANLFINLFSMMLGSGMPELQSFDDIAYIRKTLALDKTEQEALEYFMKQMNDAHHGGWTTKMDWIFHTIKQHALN

| COMPOUND | IC50 |
| --- | --- |
| Cc1nc2cc(-c3ccc4c(c3)CN(c3ncnc5c3CC3(CC5)CC3)CCO4)cnc2[nH]1 | 10 to 50 nM |

Query: Return IC50 for the following compound: CCOc1ncc(-c2ccc3c(c2)CN(c2ncnc4c2CC(C)(C)CC4)CCO3)cc1NS(C)(=O)=O
Result: 50 to 250 nM

Query: Return IC50 for the following compound: CNC(=O)c1ccc(-c2ccc3c(c2)CN(c2ncnc(C)c2Cc2ccc(F)cc2)CCO3)nc1
Result: 250 to 1000 nM

Query: Return IC50 for the following compound: CCC(N)CNS(=O)(=O)c1cc(-c2ccc3c(c2)CN(c2ncnc4c2CC(C)(C)CC4)CCO3)cnc1N (stereo not given)
Result: 10 to 50 nM

Query: Return IC50 for the following compound: Cc1nc2ccc(-c3ccc4c(c3)CN(c3ncncc3C)CCO4)cc2[nH]1
Result: 250 to 1000 nM

----------
pIC50: −log10 of the molar value.
# collection of pIC50 values tested on PIK3CA (human) (UniProt P42336)

Query: Return pIC50 for the following molecule: Nc1nc2ncc(-c3ccc4c(c3)CN(c3ncnc5cc(Cl)c(Br)cc35)CCO4)cc2[nH]1
Result: ≥ 8.00

Query: Return pIC50 for the following molecule: CN1CC[C@@H](NS(=O)(=O)c2cc(-c3ccc4c(c3)CN(c3ncnc5c3CC(C)(C)CC5)CCO4)cnc2N)C1
Result: 6.60 to 7.30

Query: Return pIC50 for the following molecule: Cc1nc2cc(-c3ccc4c(c3)CN(c3nc(CN(C)C)nc(C)c3Cc3ccc(F)cc3)CCO4)ccc2[nH]1
Result: ≥ 8.00

Query: Return pIC50 for the following molecule: Cc1nc2ncc(-c3ccc4c(c3)CN(c3ncnc(C)c3C(C)C)CCO4)cc2[nH]1
Result: 7.30 to 8.00

Query: Return pIC50 for the following molecule: Cc1ncnc(N2CCOc3ccc(-c4cnc5nc(N)cn5c4)cc3C2)c1Cc1ccc(F)cc1
Result: 6.60 to 7.30

----------
Reported IC50 values are given for each entry in this list.
biological target: PIK3CA (human) (UniProt P42336)

| MOLECULE | TARGET_UNDER_TEST | IC50 |
| --- | --- | --- |
| CSc1nc2ccc(-c3ccc4c(c3)CN(c3ccnc5ccccc35)CCO4)cc2[nH]1 | PIK3CA (human) (UniProt P42336) | 0.01 to 0.05 µM |
| COc1ccc2c(N3CCOc4ccc(-c5cnc6nc[nH]c6c5)cc4C3)nc(C)nc2c1 | PIK3CA (human) (UniProt P42336) | ≤ 0.01 µM |
| CC1(C)CCc2ncnc(N3CCOc4ccc(-c5cnc6nccnc6c5)cc4C3)c2C1 | PIK3CA (human) (UniProt P42336) | 0.25 to 1 µM |

Query: Return IC50 for the following molecule: CC1(C)CCc2ncnc(N3CCOc4ccc(-c5cnc(N)c(S(=O)(=O)N6CC(O)(CO)C6)c5)cc4C3)c2C1
Result: 0.01 to 0.05 µM

Query: Return IC50 for the following molecule: COC(=O)Nc1nc2ccc(-c3ccc4c(c3)CN(c3ccnc5cc(OC)c(OC)cc35)CCO4)cc2[nH]1
Result: ≤ 0.01 µM

Query: Return IC50 for the following molecule: Cc1nc2ccc(-c3ccc4c(c3)CN(c3ncnc5c(F)cccc35)CCO4)cc2[nH]1
Result: 0.05 to 0.25 µM

Query: Return IC50 for the following molecule: Cc1nc2ccc(-c3ccc4c(c3)CN(c3ccncn3)CCO4)cc2[nH]1
Result: 0.25 to 1 µM

Query: Return IC50 for the following molecule: CC1(C)CCc2ncnc(N3CCOc4ccc(-c5cnc(N)c(S(=O)(=O)N6CCCC6)c5)cc4C3)c2C1
Result: 0.05 to 0.25 µM

----------
Reported pIC50 values are given for each entry in this list.
biological target: PIK3CA (human) (UniProt P42336); assay: Inhibition of PIK3CA Kinase Activity
pIC50: −log10 of the molar value.

Consider the reported pIC50 for these compounds:
| COMPOUND | MEASURED_PROPERTY | ASSAY_VALUE |
| --- | --- | --- |
| Cc1nc2ccc(-c3ccc4c(c3)CN(c3ncnc5c(Cl)cc(Cl)cc35)CCO4)cc2[nH]1 | pIC50 | 6.00 to 6.60 |
| CC1(C)CCc2ncnc(N3CCOc4ccc(-c5cnc(Cl)c(OC(F)F)c5)cc4C3)c2C1 | pIC50 | 6.00 to 6.60 |
| Cc1nc2ccc(-c3ccc4c(c3)CN(c3ncnc(C)c3Cc3ccc(Cl)cc3)CCO4)cc2[nH]1 | pIC50 | 7.30 to 8.00 |

Query: Return pIC50 for the following compound: COc1ccc2c(N3CCOc4ccc(-c5ccc(OC)c(OC)c5)cc4C3)nc(CN(C)C)nc2c1
Result: 7.30 to 8.00

Query: Return pIC50 for the following compound: Cc1nc2ncc(-c3ccc4c(c3)CN(c3nc(CNS(C)(=O)=O)nc5c3CC(C)(C)CC5)CCO4)cc2[nH]1
Result: ≥ 8.00

Query: Return pIC50 for the following compound: CC1(C)CCc2ncnc(N3CCOc4ccc(-c5cnc(C#N)c(NS(C)(=O)=O)c5)cc4C3)c2C1
Result: 6.60 to 7.30

Query: Return pIC50 for the following compound: CCN(CC)Cc1nc(C)c(C(C)C)c(N2CCOc3ccc(-c4ccc5nc(C)[nH]c5c4)cc3C2)n1
Result: 7.30 to 8.00

Query: Return pIC50 for the following compound: CC(C)(N)CCNS(=O)(=O)c1cc(-c2ccc3c(c2)CN(c2ncnc4c2CC(C)(C)CC4)CCO3)cnc1N
Result: 7.30 to 8.00

Query: Return pIC50 for the following compound: Cc1nc2ccc(-c3ccc4c(c3)CN(c3nc(CN(C)C)nc5c3CC(C)(C)CC5)CCO4)cc2[nH]1
Result: ≥ 8.00

Query: Return pIC50 for the following compound: c1ccc2c(N3CCOc4ccc(-c5ccc6nc(C7CC7)[nH]c6c5)cc4C3)ccnc2c1
Result: 7.30 to 8.00

----------
pIC50: −log10 of the molar value.
# collection of pIC50 values tested on PIK3CA (human)

Consider the reported pIC50 for these compounds:
| STRUCTURE | ASSAY_VALUE |
| --- | --- |
| CCNc1nc2ccc(-c3ccc4c(c3)CN(c3nc(C)nc5cc(O)ccc35)CCO4)cc2[nH]1 | ≥ 8.00 |
| Cc1nc2c(c(N3CCOc4ccc(-c5cnc(N)c(S(=O)(=O)N[C@@H]6CCN(C)C6)c5)cc4C3)n1)CC(C)(C)CC2 | 6.60 to 7.30 |
| COc1ccc2c(N3CCOc4ccc(-c5ccc(-c6nc7ccccc7[nH]6)cc5)cc4C3)nc(C)nc2c1 | 6.00 to 6.60 |

Query: Return pIC50 for the following compound: Cc1ncnc(N2CCOc3ccc(-c4ccc5nc(N)[nH]c5c4)cc3C2)c1Cc1ccc(F)cc1
Result: 7.30 to 8.00

----------
biological target: UniProt P42336; test: Inhibition of PIK3CA Kinase Activity
pIC50: −log10 of the molar value.
Reported pIC50 values are given for each entry in this list.

Consider the reported pIC50 for these molecules:
| STRUCTURE | TARGET_UNDER_TEST | pIC50 |
| --- | --- | --- |
| CCCOc1ccc2ncnc(N3CCOc4ccc(-c5ccc6nc(C)[nH]c6c5)cc4C3)c2c1 | UniProt P42336 | 6.00 to 6.60 |
| Cc1nc2ccc(-c3ccc4c(c3)CN(c3ncnc5ccc(O)cc35)CCO4)cc2[nH]1 | UniProt P42336 | 6.60 to 7.30 |
| Cc1nc2ccc(-c3ccc4c(c3)CN(c3ncnc5scc(C)c35)CCO4)cc2[nH]1 | UniProt P42336 | 6.00 to 6.60 |

Query: Return pIC50 for the following molecule: COCCNCc1nc2c(c(N3CCOc4ccc(-c5cnc6nc(C)[nH]c6c5)cc4C3)n1)CC(C)(C)CC2
Result: 7.30 to 8.00

Query: Return pIC50 for the following molecule: CCNc1nc2ccc(-c3ccc4c(c3)CN(c3ncnc(C)c3Cc3ccc(F)cc3)CCO4)cc2[nH]1
Result: ≥ 8.00

----------
# collection of IC50 values tested on PIK3CA (human) (UniProt P42336)

Consider the reported IC50 for these molecules:
| STRUCTURE | TARGET_UNDER_TEST | IC50 |
| --- | --- | --- |
| Cc1nc(C)c(Cc2ccc(F)cc2)c(N2CCOc3ccc(-c4ccc5nc(C)[nH]c5c4)cc3C2)n1 | PIK3CA (human) (UniProt P42336) | 0.01 to 0.05 µM |
| Cc1nc2ccc(-c3ccc4c(c3)CN(c3ncnc5ccc(I)cc35)CCO4)cc2[nH]1 | PIK3CA (human) (UniProt P42336) | 0.05 to 0.25 µM |
| CNS(=O)(=O)c1cc(-c2ccc3c(c2)CN(c2ncnc(C)c2Cc2ccc(F)cc2)CCO3)cnc1N | PIK3CA (human) (UniProt P42336) | 0.05 to 0.25 µM |
| COCCOc1cc(-c2ccc3c(c2)CN(c2nc(CN(C)C)nc4c2CC(C)(C)CC4)CCO3)ccc1OC | PIK3CA (human) (UniProt P42336) | 0.05 to 0.25 µM |
| Cc1nc2ncc(-c3ccc4c(c3)CN(c3nc(CNCC(F)F)nc5c3CC(C)(C)CC5)CCO4)cc2[nH]1 | PIK3CA (human) (UniProt P42336) | 0.01 to 0.05 µM |

Query: Return IC50 for the following molecule: CCNc1nc2ccc(-c3ccc4c(c3)CN(c3cc(Nc5cccc(OC)c5)ncn3)CCO4)cc2[nH]1
Result: 0.25 to 1 µM

Query: Return IC50 for the following molecule: COCCNCc1nc2c(c(N3CCOc4ccc(-c5ccc6nc(C)[nH]c6c5)cc4C3)n1)CC(C)(C)CC2
Result: 0.01 to 0.05 µM

Query: Return IC50 for the following molecule: Cc1ncnc(N2CCOc3ccc(-c4cnc(N)nc4)cc3C2)c1Cc1ccc(F)cc1
Result: 0.05 to 0.25 µM
